# credit: patent US9493441B2

Some molecules, each annotated with its measured IC50.
target: JAK1 (Homo sapiens (Human)); assay: Jak biochemical HTRF assay, JAK1; details: JAK1 IC50 (nM), recombinant GST-tagged catalytic domain, [ATP] 31.8 μM
Sequence (P23458 875-1153): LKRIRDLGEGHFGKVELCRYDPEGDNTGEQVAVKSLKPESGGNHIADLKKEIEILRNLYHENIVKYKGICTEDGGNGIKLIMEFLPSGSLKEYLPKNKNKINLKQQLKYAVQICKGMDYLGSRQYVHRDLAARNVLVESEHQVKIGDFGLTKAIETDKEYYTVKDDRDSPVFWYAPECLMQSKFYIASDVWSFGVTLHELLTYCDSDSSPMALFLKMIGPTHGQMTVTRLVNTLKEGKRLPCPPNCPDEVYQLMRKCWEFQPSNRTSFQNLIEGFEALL
Form field: result (number plus unit)

N#CCC(C1CC1)n1cc(C(N)=O)c(Nc2ccc3c(c2)CN(CC(F)(F)F)C3=O)n1 (centres unmarked) [Example 4-31] :: 2 nM
CC(C)(C)OC(=O)N1Cc2cc(Nc3nn(C(CC#N)C4CC4)cc3C(N)=O)ccc2C1=O (centres unmarked) [Example 4-2] :: 2 nM
N#CCC(C1CC1)n1cc(C(N)=O)c(Nc2ccc(S(=O)(=O)C(F)(F)F)cc2)n1 (centres unmarked) [Example 4-28] :: 11 nM

Summary line: COC(=O)N1CCC(C(CC#N)n2cc(C(N)=O)c(Nc3ccc(F)cc3)n2)CC1 (centres unmarked) [Example 11-2] , JAK1 (Homo sapiens (Human)), reported IC50 = 55 nM

Given the molecule N#CCC(n1cc(C(N)=O)c(Nc2ccccc2)n1)C(F)(F)F (centres unmarked) [Example 2] and test system JAK1 (Homo sapiens (Human)), the measured IC50 is 124 nM

Summary: Cc1nnc(-c2ccc(Nc3nn(C(CC#N)C4CC4)cc3C(N)=O)cc2)o1 (centres unmarked) [Example 4-25] , JAK1 (Homo sapiens (Human)), IC50 = 42 nM
